The measurements presented in this section are drawn from PubChem BioAssay AID1259415.

# method.description: qHTS Assay for inhibitors of the human cytomegalovirus (HCMV)
# condition.notes: HFF cells, HCMV-luciferase reporter, 72 h; at 57.5 µM; stronger effect = lower value
# Procedure: NCGC Assay Overview: Infection with human cytomegalovirus (HCMV) continues to pose significant threats for pregnant women and immunocompromised hosts. […] This is a cell-based assay for HCMV inhibition in HFFs cells. […] At 72 h post infection cell lysates were collected and luciferase activity was determined using the Glomax-Multi + Detection System (Promega, Madison, WI). […]
Screen size: about 410,000 compounds; about 18,000 (4.4%) were called active. About 7% were inconclusive and are not listed. The sample as a whole holds a higher share of actives than the screen did.
Friendly reminder: activity change, negative = inhibition below 10% is criterion met, at or above is criterion not met.

The following compounds have reported results that may help.
CN(C)CC1Oc2ccccc2OC1(O)c1ccccc1 (stereo not given) ... criterion met
CCOc1cc(C(=O)NCCc2csc3nc(-c4ccc(C)cc4)nn23)cc(OCC)c1OCC ... criterion met
CCCn1ccc2c(OCC(=O)NCc3ccc(F)cc3)cccc2c1=O ... criterion not met
CC(C)(C)c1ccc(C(=O)Nc2ccc3c(c2)CCCN3C(=O)c2cccs2)cc1 ... criterion met

Prompt: Does the reported activity change, negative = inhibition of CSc1ccc(NC(=O)Cn2nnnc2-c2ccccc2F)cc1 stay below 10%?
Completion: criterion not met

Prompt: Regarding Cc1sc2ncn(CC(=O)N3CCN(c4ccc(F)cc4)CC3)c(=O)c2c1S(=O)(=O)N1CCN(c2ncccn2)CC1 , kindly confirm whether its activity change, negative = inhibition is beneath 10%.
Completion: criterion met

Prompt: Please check: activity change, negative = inhibition for Cc1cc(Cl)c(S(=O)(=O)Nc2ccc3c(c2)OCCO3)cc1OCC(N)=O , strictly under 10% or not?
Completion: criterion met

Prompt: Please check: activity change, negative = inhibition for COc1cccc(-n2c(=O)c3c(C)c(C(=O)N(C)C)sc3n(Cc3cccc(C)c3)c2=O)c1 , strictly under 10% or not?
Completion: criterion met

Prompt: is_below(activity change, negative = inhibition, 10%) for CC(c1ccccc1)n1c(NCCCn2ccnc2)nc2c1c(=O)[nH]c(=O)n2C (stereo not given) ?
Completion: criterion not met

Prompt: Strictly below 10%: is that where activity change, negative = inhibition of COc1cccc2cc(C(=O)NCc3ccc(C)cc3)c(=N)oc12 sits?
Completion: criterion met

Prompt: Determine if C/C(=N\NC(=O)Cc1ccccc1[N+](=O)[O-])c1cccnc1 shows activity change, negative = inhibition strictly lower than 10%.
Completion: criterion not met

Prompt: Determine whether this compound shows activity change, negative = inhibition lower than 10% (ties excluded): CCOC(=O)c1oc2c(CN3CCN(C)CC3)c(O)ccc2c(=O)c1-c1ccc(Br)cc1
Completion: criterion met

Prompt: Report whether reported activity change, negative = inhibition is lower than 10% (strictly) for Cc1oc2ncn(CC(C)C)c(=O)c2c1C(=O)N1CCN(c2ccccc2F)CC1
Completion: criterion not met

Prompt: For this compound, is activity change, negative = inhibition lower than 10%? Cc1cc(Cl)c(S(=O)(=O)N(C)C)cc1OCC(N)=O
Completion: criterion not met

Prompt: Confirm or reject: activity change, negative = inhibition of O=C(NN=Cc1ccco1)C(=O)Nc1ccc(Cl)c([N+](=O)[O-])c1 lies strictly below 10%
Completion: criterion not met

Prompt: hey, is activity change, negative = inhibition for CC1=C(c2ccc(F)cc2)S(=O)(=O)N=C1N1CCC(C(=O)NCCc2ccccc2C)CC1 lower than 10% or not?
Completion: criterion met

Prompt: Could you please tell me whether activity change, negative = inhibition recorded for O=C(CNC(=O)c1n[nH]c2ccccc12)Nc1cc(Cl)ccc1Cl is less than 10%?
Completion: criterion not met

Prompt: Hello, I'm reviewing records and need to know if activity change, negative = inhibition of COc1cccc(C(=O)N2CCCC(CCC(=O)NCc3ccc(F)c(F)c3)C2)c1 (stereo not given) is below 10%. Could you check?
Completion: criterion not met

Prompt: Report whether reported activity change, negative = inhibition is lower than 10% (strictly) for Cc1cc(C)cc(NS(=O)(=O)c2ccc3[nH]cc(C(=O)N4CCCCC4)c(=O)c3c2)c1
Completion: criterion met

Prompt: Regarding C=CCNC(=S)NNC(=O)c1ccc(Br)o1 , kindly confirm whether its activity change, negative = inhibition is beneath 10%.
Completion: criterion met
